Data origin, for the record: patent US12226395B2

Measured IC50 of individual entries
- System: nitric oxide production in microglia BV-2 cells
- PROCEDURE SUMMARY: Inhibition of nitric oxide production in LPS-treated microglia BV-2 cells (Griess reagent)
- Assay type: cell-based
- TEST CONTEXT: Mus musculus, BV-2, 24 h, read-out: IC50, inhibition of nitric oxide production (Table 4)
Answer in nM, number only, no unit symbol.

compound="C=C(C)[C@]12C[C@@H](C)[C@@]34O[C@](c5ccccc5)(O[C@@H]1C3[C@H](O)[C@@](O)(COC(=O)c1ccccc1)[C@@H](O)[C@@]1(O)C4C[C@H](C)[C@@H]1O)O2 (some centres unmarked)" observed=1060

Turning now to a further record.
IC50 in this record for C=C(C)[C@]12C[C@@H](C)[C@@]34O[C@](c5ccccc5)(O[C@@H]1C3[C@@H]1O[C@]1(COC(=O)c1ccccc1)[C@@H](O)[C@@]1(O)C4C[C@H](C)[C@@H]1O)O2 (some centres unmarked) : 180

---

- Tested on: nitric oxide production in microglia BV-2 cells
- PROCEDURE SUMMARY: Inhibition of nitric oxide production in LPS-treated microglia BV-2 cells (Griess reagent)
- Type: cell-based
- TEST CONTEXT: Mus musculus; BV-2 cells, LPS 24 hours, nitrite by Griess reagent; read-out: IC50, inhibition of nitric oxide production (Table 4)
Measured pIC50 of individual entries
// pIC50: -log10(molar conc.)

Would you please look over these solved cases?
compound="C=C(C)[C@]1(O)C[C@@H](C)[C@@]2(O)C([C@H]1OC(=O)c1ccccc1)[C@H](O)[C@@](O)(COC(=O)c1ccccc1)[C@@H](O)[C@@]1(O)C2C[C@H](C)[C@@H]1O (stereo partly drawn)" observed=5.33
compound="C=C(C)[C@@]12O[C@@]3(c4ccccc4)O[C@@H]1C1[C@@H]4O[C@]4(CO)[C@@H](O)[C@]4(O)C(=O)C(C)=CC4[C@@]1(O3)[C@H](C)[C@H]2OC(=O)c1ccccc1 (stereo partly drawn)" observed=7.22
compound="CN(C)c1ccc(O)c2c1C[C@H]1C[C@H]3[C@H](N(C)C)C(O)=C(C(N)=O)C(=O)[C@@]3(O)C(O)=C1C2=O [Minocycline, reference compound]" observed=4.67
compound="C=C(C)[C@@]12O[C@@]3(c4ccccc4)O[C@@H]1C1[C@@H]4O[C@]4(CO)[C@@H](O)[C@]4(O)C(=O)C(C)=CC4[C@@]1(O3)[C@H](C)[C@H]2OC(C)=O (stereo partly drawn)" observed=6.43
compound="C=C(C)[C@]12C[C@@H](C)[C@@]34O[C@](c5ccccc5)(O[C@@H]1C3[C@H](O)[C@@](O)(CO)[C@@H](O)[C@@]1(O)C4C=C(C)[C@@H]1O)O2 (stereo partly drawn)" observed=5.47
compound="C=C(C)[C@@]12O[C@@]3(c4ccccc4)O[C@@H]1C1[C@@H]4O[C@]4(CO)[C@@H](O)[C@]4(O)C(=O)[C@@H](C)CC4[C@@]1(O3)[C@H](C)[C@H]2OC(C)=O (stereo partly drawn)" observed=6.60

pIC50 in this record for C=C(C)[C@]12C[C@@H](C)[C@@]34OC(c5ccccc5)(O[C@@H]1C3[C@@H]1O[C@]1(CO)[C@@H](O)[C@]13OC(=O)O[C@H]1[C@@H](C)CC43)O2 (stereo partly drawn) : 5.11

pIC50 in this record for C=C(C)[C@]12C[C@@H](C)[C@@]34O[C@](c5ccccc5)(O[C@@H]1C3[C@@H]1O[C@]1(CO)[C@@H](O)[C@]1(O)C(=O)[C@@H](C)CC41)O2 (stereo partly drawn) : 5.80

pIC50 in this record for C=C(C)[C@]12C[C@@H](C)[C@@]34O[C@](c5ccccc5)(O[C@@H]1C3[C@@H]1O[C@]1(CO)[C@@H](O)[C@@]1(O)C4C[C@H](C)[C@@H]1O)O2 (stereo partly drawn) : 5.91

---

- TGT: Nurr1 (Homo sapiens)
- Construct: 3 types of plasmid DNA, including DNA containing Nurr1-LBD and DNA with β-galactosidase, were transfected into BE(2)C cells; expressed in transfected cells; host or cells: BE(2)C cells
- Sequence (P43354 360-595 limits assumed): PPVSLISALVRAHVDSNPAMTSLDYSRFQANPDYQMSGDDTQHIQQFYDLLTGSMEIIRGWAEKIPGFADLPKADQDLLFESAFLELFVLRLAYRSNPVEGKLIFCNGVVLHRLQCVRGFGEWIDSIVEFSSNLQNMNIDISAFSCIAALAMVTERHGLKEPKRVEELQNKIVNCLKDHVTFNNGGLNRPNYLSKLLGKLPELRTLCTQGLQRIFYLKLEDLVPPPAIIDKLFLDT
- PROCEDURE SUMMARY: Nurr1 activity, luciferase reporter analysis in transfected BE(2)C cells
- Type: cell-based
- TEST CONTEXT: 0.03 μM
READOUT: Nurr1 activity (Table 3), relative to control treatment
Please reply with the number alone, leaving off any unit.

Nurr1 activity (Table 3), relative to control treatment in this record for C=C(C)[C@]12C[C@@H](C)[C@@]34O[C@](c5ccccc5)(O[C@@H]1C3[C@@H]1O[C@]1(CO)[C@@H](O)[C@@]1(O)C4C[C@H](C)[C@@H]1OC(=O)/C=C/C=C/CCCCC)O2 (stereo partly shown) : 1.4
